# system.under.test: T1, human PACAP27 (human, C-terminal leucine is amidated; 125I-labelled in Example 10)
# T1 peptide: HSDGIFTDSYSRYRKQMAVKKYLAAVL
# experimental.protocol: SPR, Ab immobilised
# From the text: [The procedure below names another target; the source says it served here with some conditions changed.] Binding affinities of monoclonal antibodies for human PACAP were estimated using SPR on the PROTEON™ XPR36 (Bio-Rad, Hercules, Calif.). Antibody was immobilized to the surface of general amine coupling (“GLC” or “GLM”) Chips (Bio-Rad, Hercules, Calif.). […]
Listed binders paired with reported koff

{"columns": ["binder", "koff [s⁻¹]"],
 "data": [
  ["anti-PACAP antibody Ab12 (antibody, human IgG1, kappa, N297A, V domains shown, full-length rabbit/human chimeric antibody) VH: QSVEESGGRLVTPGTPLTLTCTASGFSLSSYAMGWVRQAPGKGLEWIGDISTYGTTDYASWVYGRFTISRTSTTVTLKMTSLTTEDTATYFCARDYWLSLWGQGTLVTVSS VL: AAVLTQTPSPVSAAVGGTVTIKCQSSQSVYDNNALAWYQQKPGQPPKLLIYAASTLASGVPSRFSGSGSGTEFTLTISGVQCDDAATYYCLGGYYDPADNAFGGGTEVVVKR", "2.1e-05"],
  ["anti-PACAP antibody Ab5 (antibody, human IgG1, kappa, N297A, V domains shown, full-length rabbit/human chimeric antibody) VH: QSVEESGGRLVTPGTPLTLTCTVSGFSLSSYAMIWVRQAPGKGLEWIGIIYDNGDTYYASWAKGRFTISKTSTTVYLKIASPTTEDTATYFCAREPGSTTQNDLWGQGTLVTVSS VL: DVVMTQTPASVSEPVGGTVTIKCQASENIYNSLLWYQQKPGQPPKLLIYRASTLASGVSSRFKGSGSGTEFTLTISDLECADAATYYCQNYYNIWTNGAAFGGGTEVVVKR", "2.4e-05"],
  ["anti-PACAP antibody Ab7 (antibody, human IgG1, kappa, N297A, V domains shown, full-length rabbit/human chimeric antibody) VH: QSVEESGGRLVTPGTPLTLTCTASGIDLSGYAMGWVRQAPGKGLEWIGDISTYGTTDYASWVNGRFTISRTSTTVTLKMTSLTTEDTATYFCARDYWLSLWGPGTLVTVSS VL: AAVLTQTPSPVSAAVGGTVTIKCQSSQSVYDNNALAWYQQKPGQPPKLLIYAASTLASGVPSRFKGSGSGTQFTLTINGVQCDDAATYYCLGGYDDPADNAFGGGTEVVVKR", "4.5e-05"]
]}
